Experiment: NCI Yeast Anticancer Drug Screen. Data for the rad50 strain (AID 155)
Conditions: S. cerevisiae rad50 strain growth inhibition; at 50.0 µM
About 79,000 compounds went through this panel and 15% of them were active in at least one assay; those are over-represented in the sample as a whole. Activity calls are given as the source filed them. Cut-off read from the data, not from the text of the source: active = growth inhibition above about 70%; inactive = the rest.
Your reply should match one of these outcome classes. YES (active), NO (inactive)

MOLECULE	CATEGORY
C1=C[N-]c2c3c(ccc2=C1)=CC=C[N-]3.C1=C[N-]c2c3c(ccc2=C1)=CC=C[N-]3.C1=C[N-]c2c3c(ccc2=C1)=CC=C[N-]3.[Co+3].[O-][Cl+3]([O-])([O-])O	NO
O=NN(CCCl)C(=O)O	NO
CCC(CN)c1ccccc1 (stereo unspecified)	NO

Which result was noted for this molecule in the test: CCOP(=O)(OCC)/C(C#N)=C/c1ccc(C)o1 NO

Which result was noted for this molecule in the test: COC(=O)[C@H]1[C@H]2CCOC1(c1cc(OC)c(OC)c(OC)c1)c1cc3c(cc1[C@H]2O)OCO3 NO

###

Test: NCI Yeast Anticancer Drug Screen. Data for the cln2 rad14 strain (AID 165)
Details: S. cerevisiae cln2 rad14 strain, at 50.0 µM
This is part of a sample that, as a whole, favours compounds with a hit. Of some 79,000 tested, about 15% had one in any assay. Active and inactive are the calls of the source. Rule as the data show it: active = growth inhibition above about 70%; inactive = the rest.
Your reply should match one of these outcome classes. active, inactive

Recorded results for 5 molecules are shown here.
MOLECULE	CATEGORY
O=C1c2ccccc2C(=O)c2ccccc21	inactive
CCc1cc(C)cc2[n+]1CC=C2C	inactive
COC(=O)/C=C/[C@H]1[C@H](C)N1S(=O)(=O)c1ccc(C)cc1 (stereo partly specified)	inactive
C=C(Nc1nc2ccc(C)cc2s1)C(=O)C(CC)C(=O)C(CC)CC1C(=O)NC(=O)NC1=O (stereo unspecified)	inactive
O=[N+]([O-])c1cc(S(=O)(=O)F)cc(Cl)c1S	active

Which result was noted for this molecule in the test: COC1CC2C=CC3C4OC2(/C(C)=C/C(C)C(C(C)O)OC1=O)C3C(O)C(C)C4OC(=O)c1ccc[nH]1 (stereo unspecified) inactive

Which result was noted for this molecule in the test: NC(=O)c1c[se]c(C2OC(CO)C(O)C2O)n1 (stereo unspecified) inactive

Which result was noted for this molecule in the test: CC1=CC(=O)C2=C(C)C[C@H](O)[C@@H]3[C@H](OC(=O)[C@H]3C)[C@@H]12 inactive

###

Assay: NCI Yeast Anticancer Drug Screen. Data for the mlh1 rad18 strain (AID 175)
Conditions: S. cerevisiae mlh1 rad18 strain growth inhibition; at 50.0 µM; active compounds read high
The panel holds about 79,000 compounds, 15% with a hit somewhere; the sample as a whole holds those more often.
Classify as follows. Reported growth inhibition greater than or equal to -10%: rule met. Reported growth inhibition below: rule not met.

COMPOUND	CATEGORY
CP(=S)(c1ccccc1)P(C)(=S)c1ccccc1 (configuration not stated)	rule not met
O=C(CC(=O)C(F)(F)F)c1cccs1	rule not met

API: above_or_equal(metric=growth inhibition, cutoff=-10%) for item C[Si]1(C)CCCC2(C1)C(=O)NC(=O)NC2=O rule not met

API: above_or_equal(metric=growth inhibition, cutoff=-10%) for item CN1C2CCC1CC(OC(=O)/C=C\c1ccccc1)C2 (configuration not stated) rule met

API: above_or_equal(metric=growth inhibition, cutoff=-10%) for item Cc1csc2sc3ccccc3[n+]12 rule not met

API: above_or_equal(metric=growth inhibition, cutoff=-10%) for item O=S(=O)(c1ccccc1)c1ccccc1 rule not met

API: above_or_equal(metric=growth inhibition, cutoff=-10%) for item CCNP(=O)(OCC)OCC rule met

Numbers sourced from PubChem BioAssay (NCI).
